# Test system: Colon cancer organoid
# experimental.details: Identification of compartment-specific drug sensitivities in O20 CRC organoid-stroma F20 CAF co-cultures. Organoid is transduced with Lucferase2-P2A-EGFP lentivirus, fibroblast with Renilla-dsRed lentivirus. Dual-Glo Luciferase assay is used to report viability data.
# Type: functional, Homo sapiens
# Set-up: dose or concentration left out as unconfirmed
# experimental.parameters: Transduced with Lucferase2-P2A-EGFP lentivirus
# maps each entry to its Cell Viability
Express your answer as a number followed by its unit.

| molecule | value.measured |
| --- | --- |
| NS(=O)(=O)c1cc(NC(=O)Cc2ccccc2)ccc1Oc1cccc(Cl)c1 [BAY-1797] | 89.0927% |
| CN(C(=O)c1ccccc1)c1cc(N(C)c2ccc3c(c2)CCc2ccc(C(=O)NCCN4CCOCC4)cc2C3=O)ccc1F [FM-743] | 87.6379% |
| c1ccc(C2CCN(c3cnc4c(N5CCOCC5)nccn34)CC2)cc1 | 90.2822% |

Reported Colon cancer organoid Cell Viability for item CC(=O)Nc1ncc(CN2CCC[C@H](Cc3cc(C)nc(C)c3)C2)s1 [JNJ-65355394] was 88.5022%

----------
# System: Colon cancer organoid
# experimental.details: Identification of compartment-specific drug sensitivities in O20 CRC organoid-stroma F20 CAF co-cultures. Organoid is transduced with Lucferase2-P2A-EGFP lentivirus, fibroblast with Renilla-dsRed lentivirus. Dual-Glo Luciferase assay is used to report viability data.
# Format: functional, Homo sapiens
# Parameters: dose or concentration left out as unconfirmed
# experimental.parameters: Transduced with Lucferase2-P2A-EGFP lentivirus
measured.parameter: Cell Viability (%)
Field: numeric (%). Do not append units.

| molecule | assayed.target | Cell Viability / % |
| --- | --- | --- |
| COc1cc2c(NC3CCN(C(C)C)CC3)nc(N3CCC(F)(F)CC3)nc2cc1OCCCN1CCCC1 | Colon cancer organoid | 136.596 |

Briefly, Cell Viability measured for C[C@H]1CC(=O)Nc2cc(C(=O)NCCC3CC3)ccc2N1C(=O)N1CC2CC2C1 (stereo partly specified) : 106.68

Looking up `Cc1cc(C)cc([C@@H]2c3cc(C)ccc3NC(=O)CN2C(=O)c2ccc(Br)s2)c1` , I found its Cell Viability recorded as 135.909

Noted for `O=C(CCCCCCNC(=O)c1cnc(N(c2ccccc2)c2ccccc2)nc1)NO` : its Cell Viability reads 159.49

get_value(item= `Cc1ccc(NC(=O)Nc2cc(C(F)(F)F)ccc2F)cc1Nc1ccc2c(c1)NC(=O)/C2=C\c1ccc[nH]1` , readout=Cell Viability) returns 98.8429

// recorded Cell Viability for `CN(C)CCOc1ccc(-c2nc(-c3ccncc3)c(-c3ccc4c(c3)CC/C4=N\O)[nH]2)cc1` : 154.959

----------
# System: Colon cancer organoid
# experimental.details: Identification of compartment-specific drug sensitivities in O06 CRC organoid-stroma F06 CAF co-cultures. Organoid is transduced with Lucferase2-P2A-EGFP lentivirus, fibroblast with Renilla-dsRed lentivirus. Dual-Glo Luciferase assay is used to report viability data.
# Type: functional, Homo sapiens
# Design: dose or concentration left out as unconfirmed
# experimental.parameters: Transduced with Renilla-dsRed lentivirus
// reported Cell Viability for each item listed
Report the value in % with no unit label.

Reference set, count: 5
| compound | Cell Viability, % |
| --- | --- |
| FC(F)(F)c1ccc2c(c1)nc(-c1cccnc1)n2C1CC1 [MSD-CYP11B2-Negative-control] | 83.1787 |
| Cn1cc(C2=C(c3cn(C4CCN(Cc5ccccn5)CC4)c4ccccc34)C(=O)NC2=O)c2ccccc21 | 92.7001 |
| CN(C)C(=O)Cn1cc(-c2ccc(-c3cncc4ccccc34)cc2)cn1 | 47.4852 |
| CN(C)C(=O)/C(C#N)=C/c1ccc(-c2nc3cnc4c(ccn4C)c3n2C2CCCCC2)o1 | 127.582 |
| Cc1c(N2CCCC2)nc2ccc(Br)cc2c1C(=O)NC[C@H](CCC(=O)O)c1ccccc1Cl | 142.298 |

`Cc1c(Nc2ccc(S(=O)(=O)N3CCN(C)CC3)cc2F)nc2ccc(Nc3cnn(C4CC4)c3)cn2c1=O` has a reported Cell Viability of 120.859

Lab note: `Cn1cc(-c2[nH]c3cc(NC(=O)[C@H](N)C4CCCCC4)cc4c3c2C=NNC4=O)cn1` gave Cell Viability of 180.436

compound `C[C@@H]1CN(c2cc(-c3nn(C)c4ccc(OC5(C)CC5)cc34)ncn2)C[C@H](C)O1` , Cell Viability observed: 87.1439

Cell Viability recorded for this compound, `CNC(=O)c1cc(C(=O)NC2CC2)cn(Cc2ccccc2)c1=O` , is 132.009

The recorded Cell Viability for `CCCOc1ccn2c(C(C)=O)cc(-c3cccc(OC)c3)c2c1` is 146.669

The recorded Cell Viability for entry `CC(C)C(=O)Nc1n[nH]c2cc(-c3cccc(NS(=O)(=O)C4CC4)c3)ccc12` equals 111.722

Entry under test: `Cc1cnc(Nc2ccc(F)cc2Cl)nc1-c1c[nH]c(C(=O)N[C@H](CO)c2cccc(Cl)c2)c1` . Its Cell Viability was 63.6391

Item: `O=C(Nc1cccnc1)c1cc(-c2ccnc(F)c2)ccc1OCc1ccccc1` | Cell Viability: 83.1264

Cell Viability for CN([C@@H]1CCc2c(CC(=O)O)c3cc(S(C)(=O)=O)ccc3n2C1)S(=O)(=O)c1ccc(F)cc1 [CRTH2-negative-control] is 74.5251

Origin of the recorded values: ChEMBL document CHEMBL5608141
